biological target: human CD33 on primary human monocyte-derived dendritic cells (human, UniProt P20138 18-364); test: cell-based or functional assay
Sequence (P20138 18-364): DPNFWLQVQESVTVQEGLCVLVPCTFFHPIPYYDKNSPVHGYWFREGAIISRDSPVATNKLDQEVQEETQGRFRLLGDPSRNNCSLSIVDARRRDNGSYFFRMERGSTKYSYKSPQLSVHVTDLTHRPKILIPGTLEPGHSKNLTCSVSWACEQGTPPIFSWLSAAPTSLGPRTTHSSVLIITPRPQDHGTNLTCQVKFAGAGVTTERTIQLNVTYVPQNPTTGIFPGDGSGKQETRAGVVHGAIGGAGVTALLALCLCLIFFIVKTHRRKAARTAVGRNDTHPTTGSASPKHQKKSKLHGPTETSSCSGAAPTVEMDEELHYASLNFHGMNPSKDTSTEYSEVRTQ
MEASURED QUANTITY: Receptor downregulation (EC50) (nM)
Respond with the bare value in nM.

Past entries and their recorded results:
AB-63.7 (antibody, V domains shown) VH: QVQLVQSGAEVKKPGASVKVSCKASGYTFTDYNLHWVRQAPGQGLEWIGFIYPSNGITGYAQKFQGRVTMTVDTSTSTVYMELSSLRSEDTAVYYCARSTVDYFDYWGQGTLVTVSS VL: DIVLTQSPDSLAVSLGERATINCRASQDVSTSTYSYMHWYQQKPGQPPKLLIKYAFNLESGVPDRFSGSGSGTDFTLTISSLQAEDVAVYYCQHSWEIPLEFGQGTKLEIK ... 0.0416
AB-63.14 (antibody, V domains shown) VH: QVQLVQSGAEVKKPGSSVKVSCKASGYTFTDYNLHWVRQAPGQGLEWIGFIYPSNGITGYAQKFQGRVTMTVDTSTSTVYMELSSLRSEDTAVYYCARSDVDYFDYWGQGTLVTVSS VL: DIVLTQSPDSLAVSLGERATIDCKASQDVSTSTYSYMHWYQQKPGQPPKLLIKYASNLESGVPDRFSGSGSGTDFTLTISSLQAEDVAVYYCQHSWEIPLTFGQGTKLEIK ... 0.0519
AB-63.11 (antibody, V domains shown) VH: QVQLVQSGAEVKKPGASVKVSCKASGYTFTDYNFHWVRQAPGQGLEWIGFIYPANGITGYAQKDQGRVTMTVDTSTSTVYMELSSLRSEDTAVYYCARSDVDYFDYWGQGTLVTVSS VL: DIVLTQSPDSLAVSLGERATINCRASQDVSTSTYSYMHWYQQKPGQPPKLLIKYASNLESGVPDRFSGSGSGTDFTLTISSLQAEDVAVYYCQHSWEIPLTFGQGTKLEIK ... 0.044

Attention now turns to another entry.
Challenge: Could you share which Receptor downregulation (EC50) value was measured for AB-63.6 (antibody, V domains shown) VH: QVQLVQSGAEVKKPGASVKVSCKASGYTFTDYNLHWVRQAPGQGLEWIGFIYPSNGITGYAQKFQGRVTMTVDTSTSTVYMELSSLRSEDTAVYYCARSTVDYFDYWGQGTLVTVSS VL: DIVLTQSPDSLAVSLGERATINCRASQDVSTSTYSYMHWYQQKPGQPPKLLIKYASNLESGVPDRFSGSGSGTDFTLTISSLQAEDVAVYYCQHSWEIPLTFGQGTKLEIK ?
Response given: 0.0463
